- Tested on: Staph. aureus
- protocol-summary: Expanded Spectrum MIC (Table II)
- Type: cell-based
- particulars: Staphylococcus aureus, strain S226
- Excerpt: A typical and preferred compound provided by this invention is 7-(3-benzothienyl)glycylamido-3-methyl-3-cephem-4-carboxylic acid, the compound illustrated in Example 9. The antibacterial activity of this compound has been determined in standard in vitro agar dilution assays against a variety of gram positive and gram negative microorganism. […]
endpoint: MIC (µg/mL)
Give your result in µg/mL as a bare value.

Known MIC results, listed for orientation:
{"compound": "CC1=C(C(=O)O)N2C(=O)C(NC(=O)[C@H](N)c3csc4c(F)cccc34)C2SC1 (stereo partly drawn) [Ex. 20]", "unit-abbreviation": "µg/mL", "MIC": 2}
{"compound": "CC1=C(C(=O)O)N2C(=O)C(NC(=O)C(N)c3csc4ccccc34)C2SC1 (stereo not drawn) [Ex. 9]", "unit-abbreviation": "µg/mL", "MIC": 2}
{"compound": "CC1=C(C(=O)O)N2C(=O)C(NC(=O)[C@H](N)c3csc4cccc(F)c34)C2SC1 (stereo partly drawn) [Ex. 19]", "unit-abbreviation": "µg/mL", "MIC": 4}
{"compound": "CC1=C(C(=O)O)N2C(=O)C(NC(=O)[C@H](N)c3csc4ccc(F)cc34)C2SC1 (stereo partly drawn) [Ex. 18]", "unit-abbreviation": "µg/mL", "MIC": 2}
{"compound": "CC1=C(C(=O)O)N2C(=O)C(NC(=O)[C@H](N)c3csc4cc(F)ccc34)C2SC1 (stereo partly drawn) [Ex. 17]", "unit-abbreviation": "µg/mL", "MIC": 1}

Alright, here's another compound for you.
Summary line: CON=C(C(=O)NC1C(=O)N2C(C(=O)O)=C(C)CSC12)c1csc2cc(OC)ccc12 (stereo not drawn) [Ex. 22] , Staph. aureus, reported MIC = 2

* * *

- Tested on: Staph. aureus
- protocol-summary: Agar Dilution MIC (Table I)
- Assay type: cell-based
- particulars: Staphylococcus aureus, strain X1.1; read-out: Agar Dilution MIC
Output yes (1) for records whose MIC is lower than 1 µg/mL, no (0) for records at or above 1 µg/mL.

{"molecule": "CC1=C(C(=O)O)N2C(=O)[C@@H](NC(=O)[C@H](N)c3ccccc3)[C@H]2SC1", "target-or-system": "Staph. aureus", "class-label": "no (0)"}

**Query** Could you please tell me whether MIC recorded for CC1=C(C(=O)O)N2C(=O)C(NC(=O)[C@@H](N)c3csc4c(F)cccc34)C2SC1 (some centres unmarked) is less than 1 µg/mL?
**Result** no (0)

**Query** Could you please tell me whether MIC recorded for CC1=C(C(=O)O)N2C(=O)C(NC(=O)[C@H](N)c3csc4c(F)cccc34)C2SC1 (some centres unmarked) is less than 1 µg/mL?
**Result** yes (1)

**Query** Could you please tell me whether MIC recorded for CC1=C(C(=O)O)N2C(=O)C(NC(=O)[C@@H](N)c3csc4ccc(Cl)cc34)C2SC1 (some centres unmarked) [Ex. 38A] is less than 1 µg/mL?
**Result** no (0)

* * *

- Tested on: Strep. PN
- protocol-summary: Agar Dilution MIC (Table I)
- Format: cell-based
- particulars: strain PARK
Output Criterion met for records whose MIC is lower than 4 µg/mL, Criterion not met for records at or above 4 µg/mL.

{"compound": "CON=C(C(=O)NC1C(=O)N2C(C(=O)O)=C(C)CSC12)c1csc2cc(OC)ccc12 (stereo not drawn) [Ex. 22]", "class-label": "Criterion met"}
{"compound": "CC1=C(C(=O)O)N2C(=O)C(NC(=O)[C@H](N)c3csc4c(F)cccc34)C2SC1 (stereo partly drawn) [Ex. 20]", "class-label": "Criterion met"}
{"compound": "CC1=C(C(=O)O)N2C(=O)C(NC(=O)[C@@H](N)c3csc4c(F)cccc34)C2SC1 (stereo partly drawn) [Ex. 21]", "class-label": "Criterion not met"}

**Query** Could you please tell me whether MIC recorded for CC1=C(C(=O)O)N2C(=O)C(NC(=O)[C@@H](N)c3csc4cc(Cl)ccc34)C2SC1 (stereo partly drawn) [Ex. 37A] is less than 4 µg/mL?
**Result** Criterion not met

**Query** Could you please tell me whether MIC recorded for CC1=C(C(=O)O)N2C(=O)C(NC(=O)[C@@H](N)c3csc4cccc(Cl)c34)C2SC1 (stereo partly drawn) [Ex. 36A] is less than 4 µg/mL?
**Result** Criterion not met

**Query** Could you please tell me whether MIC recorded for CC1=C(C(=O)O)N2C(=O)C(NC(=O)[C@H](N)c3csc4ccc(Cl)cc34)C2SC1 (stereo partly drawn) [Ex. 38B] is less than 4 µg/mL?
**Result** Criterion met

**Query** Could you please tell me whether MIC recorded for CC1=C(C(=O)O)N2C(=O)C(NC(=O)[C@H](N)c3csc4cc(F)ccc34)C2SC1 (stereo partly drawn) [Ex. 17] is less than 4 µg/mL?
**Result** Criterion met

**Query** Could you please tell me whether MIC recorded for CC1=C(C(=O)O)N2C(=O)C(NC(=O)[C@H](N)c3csc4ccc(F)cc34)C2SC1 (stereo partly drawn) [Ex. 18] is less than 4 µg/mL?
**Result** Criterion met

Data origin: patent US4492693A
